Ki values for Adenosine receptor A1 (Homo sapiens) compiled from several publications are listed below.

[[record]]
compound = "O=C(Nc1ccncc1)Nc1nc2nn(CCO)cc2c2nc(-c3ccco3)nn12"
assay_endpoint = "Ki"
result = "> 1 µM"

[[record]]
compound = "CCCn1c(=O)c2nc(-c3ccc(OCc4nc(-c5ccc(OC)cc5)no4)cc3)[nH]c2n(CCC)c1=O"
assay_endpoint = "Ki"
result = "> 6 µM"


Next compound, please.
Supply Ki value. Item: Cc1ccc2c(N=[N+]=[N-])c(Cc3ccccc3)cnc2n1
> 10 µM

----------
Ki values for Adenosine receptor A1 (Homo sapiens) compiled from several publications are listed below.

[[record]]
compound = "CCCOC(=O)N1Cc2nc(-c3ccccc3)nn2-c2cc(C)ccc21"
target_or_test_system = "Adenosine receptor A1 (Homo sapiens)"
assay_endpoint = "Ki"
result = "565 nM"

[[record]]
compound = "Cc1cn2c3c(=O)[nH]c(=O)n(Cc4ccccc4)c3nc2n1C(C)CO (stereo not drawn)"
target_or_test_system = "Adenosine receptor A1 (Homo sapiens)"
assay_endpoint = "Ki"
result = "> 1000 nM"


Supply Ki value. Item: CC1CSc2nc3nnnc-3c(O)n21 (stereo not drawn)
> 10000 nM
